Tested on: Fer (mouse);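 further: 11-residue human phosphosite peptides and single-mutation variants displayed on the E. coli surface, counted by deep sequencing, each peptide's frequency after selection divided by its frequency in the unselected input library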;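 further: frequency after pTyr selection over input frequency; kinase dosed for 20-30% of maximal phosphorylation in three min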
Assay: phosphorylation enrichment, bacterial display (enrichment ratio); higher = better substrate or ligand; peptides without Tyr show the background
quantity.name: phosphorylation enrichment
Numbers only.

# annotated cases, reported phosphorylation enrichment shown
Asked: Form field: reported phosphorylation enrichment of SSPVLYLSPET [TJP1_Y931_P930L]
Given back: 0.459

Asked: Form field: reported phosphorylation enrichment of FSQQTYFRVSN [ABCD1_Y180_YF]
Given back: 0.415

Asked: Form field: reported phosphorylation enrichment of EVESPYEVHDF [GIGYF2_Y1168_YF]
Given back: 12.3

Asked: Form field: reported phosphorylation enrichment of PTDGVYVMPTV [MYO7A_Y1668_S1666G]
Given back: 0.789

Asked: Form field: reported phosphorylation enrichment of NPETCYQKLKK [TK2_Y190_R192K]
Given back: 0.509

Asked: Form field: reported phosphorylation enrichment of DRLASNLDKVR [KRT10_Y160_Y160N]
Given back: 0.339

Asked: Form field: reported phosphorylation enrichment of GSSEDYLHMVH [NIPBL_Y247]
Given back: 0.416

Asked: Form field: reported phosphorylation enrichment of VVRSLYEDLED [VHL_Y185_I180V]
Given back: 1.24

I'm hoping you can list phosphorylation enrichment for every sequence here, please.
1. KAIMTYVPSFF [ACTN4_Y260_S262P_YF]
2. FLRKEYGGLNV [CBR3_Y81]
3. STQAHYRLSAF [ADAMTS9_Y100_S96T]
4. WPLKWYVPECI [ZAP70_Y506_A507V]
5. AKLDIYKRKVE [VWA3B_Y918_N916D]

Given back:
1. 0.438
2. 0.375
3. 0.386
4. 0.44
5. 0.317

I'm hoping you can list phosphorylation enrichment for every sequence here, please.
1. YCRHNYGVVES [HLA-DRB1_Y112]
2. GPSTPYTKSKR [SMARCC2_Y324]

Given back:
1. 0.41
2. 0.324

I'm hoping you can list phosphorylation enrichment for every sequence here, please.
1. LLREWYLQDPF [SIX3_Y225_YF]
2. YPLELYERVRI [PRKCG_Y312_M317I]
3. PGVNFYFQVSA

Given back:
[0.661, 4.38, 0.724]

I'm hoping you can list phosphorylation enrichment for every sequence here, please.
1. IFLADYRIMEG [ALOX12B_Y318_YF]
2. TEAEPYFCSLR [NPHS1_Y1138_R1140C_YF]
3. MEIHAYLKLLE [LMNA_Y376_R377L]
4. GRVLGYGTFGK [FLT4_Y853_A855T]
5. IRTIDYRYTVS [IDS_Y497_W502S]

Given back:
1: 0.453; 2: 0.466; 3: 0.587; 4: 0.393; 5: 0.45
